Test system: Hs-578T
Test: NCI tumour cell line growth inhibition, 48 h
Active and inactive are the calls of the source. Cut-off read from the data, not from the text of the source: active = GI50 up to about 1.1 µM and inactive = higher.
Readings of GI50 for the listed compounds

CC(C)(C)C1=C(Br)C(O)(C(C)(C)C)OP1(=O)c1ccccc1 (stereo not given) : > 100 µM (inactive)
COc1cc(S(=O)(=O)Nc2nc(-c3ccc(N4C(=O)/C(=C\c5cccs5)N=C4c4ccccc4)cc3)cs2)ccc1Cl : 24 µM (inactive)
N#CCCN(CCC#N)c1ccc(C(/N=N/c2ccccc2)=N\c2ccccc2)cc1 : > 100 µM (inactive)

Test item CN(C)CCCNc1c2c(nc3ccc(Cl)cc13)CCCC2 ; Hs-578T; reported GI50 was 19.1 µM (inactive)

The compound COc1ccc(C2c3cc4c(cc3OC(N3CCOCC3)C2C)OCO4)c(OC)c1 (stereo not given) on Hs-578T: GI50 was 1.97 µM (inactive)

----------
Test system: NCI-H226
Assay: NCI tumour cell line growth inhibition, 48 h
Activity calls are given as the source filed them. Rule as the data show it: active = GI50 up to about 1.1 µM and inactive = higher.
measurementLabel: GI50

Cc1nnc2sc(-c3ccc([N+](=O)[O-])o3)nn12 : 15 µM (inactive)
COC(=O)[C@@H]1[C@@H]2NC(=S)N[C@@]1(C)Oc1ccccc12 : 91.4 µM (inactive)
COc1cc(/C=C2\C(=O)N(c3ccc(NC(C)=O)cc3)C(c3ccccc3)S2(=O)=O)cc(OC)c1OC (stereo not drawn) : > 100 µM (inactive)
O=c1[nH]c(=O)n(C2CC(O)C(CO)O2)cc1OCc1ccccc1 (stereo not drawn) : > 100 µM (inactive)
CCOP(=O)(OCC)C1CC(O)C(=O)N1 (stereo not drawn) : > 100 µM (inactive)

# GI50 of CC(=O)OC(C)C1C2=C(C(=O)CC1(C)O)C(=O)c1c(ccc(-c3ccc4c(c3O)C(=O)C3=C(C4=O)C(C(C)OC(C)=O)C(C)(O)CC3=O)c1O)C2=O (stereo not drawn) = 9.33 µM (inactive)

// C=C(C)CCC1CCCCC(CN(C)C)C1=O (stereo not drawn) : GI50 value = > 100 µM (inactive)

Per the records, this molecule ( COc1ccc(-c2cn3c(n2)sc2cc(C)ccc23)cc1 ) has GI50 equal to 15.2 µM (inactive)

The reported value for O=[N+]([O-])c1cc([N+](=O)[O-])c(Nn2c3ccccc3c3ccccc32)c([N+](=O)[O-])c1 in terms of GI50 is 1.4 µM (inactive)

Please fill in: GI50 reported for O=Cc1[nH]c(=O)[nH]c(=O)c1CCl = > 100 µM (inactive)

Summary for this molecule, O=C1C[C@@H]2[C@@H](C=CC23CC3)N1O : GI50 is > 100 µM (inactive)

In plain terms, O=C(/C=C/c1ccc2c(c1)OCO2)c1ccccc(=O)c1O has a documented GI50 of 35.6 µM (inactive)

Value of measured GI50 for the entry COc1cccc2nc3c(C(=O)NCCN(C)C)cccc3cc12 : 1.4 µM (inactive)

Value of measured GI50 for the entry C=C1C(OC(=O)/C=C/c2ccccc2)CC(OC(C)=O)C2(C)C1CC1CC(OC(C)=O)C(C)=C(C(OC(C)=O)C2OC(C)=O)C1(C)C (stereo not drawn) : > 100 µM (inactive)

// GI50 value for CC(C)OC(=O)[C@@H]1OC(C)(C)O[C@H]1C(=O)OC(C)C : > 100 µM (inactive)

GET /value?item= COc1ccc(C2COc3cc(O)c(O)cc3C2)cc1 (stereo not drawn) &field=GI50 returns 39.6 µM (inactive)

For this molecule ( C=CCN1C(=O)/C(=C/c2cccs2)N=C1SC/C=C/C ), measured GI50 is > 100 µM (inactive)

Measured GI50, CN(C)c1n/c(=N/c2ccc(/N=c3\nc(N(C)C)ss3)cc2)ss1 : 56.5 µM (inactive)

----------
Test system: BT-549
Test: NCI tumour cell line growth inhibition, 48 h
Calls of active or inactive are those of the source. Rule as the data show it: active = GI50 up to about 1.1 µM and inactive = higher.
A correct response names exactly one class from y (active), n (inactive)

Cc1ccc(S(=O)(=O)SC/C=C\CSS(=O)(=O)c2ccc(C)cc2)cc1 : n
Cc1ccc([N+](=O)[O-])cc1S(=O)(=O)Nc1ccc(C2=NN(C(=O)c3ccccc3)C(c3ccccc3O)C2)cc1 (configuration not stated) : n
Cc1nc2ccc(C(F)(F)F)cc2nc1NCc1ccc(Cl)c(Cl)c1 : n
CC(=O)OCC1=C(C)C(OC(=O)C(OC(C)=O)[C@@H](NC(=O)c2ccccc2)c2ccccc2)CCC1(C)C (some centres not stated) : n
CCOC(=O)CSc1c(C(=O)OCC)c(=O)n(-c2ccccc2)c(=S)n1-c1ccccc1 : n

Q: Hello, I am checking results. What call was entered for NC(CCCCNC(=O)CNC(=O)OCc1ccccc1)C(=O)NC(CCCCNC(=O)CNC(=O)OCc1ccccc1)C(=O)NC(CCCCNC(=O)CNC(=O)OCc1ccccc1)C(=O)NC(CCCCNC(=O)CNC(=O)OCc1ccccc1)C(=O)NC(CCCCNC(=O)CNC(=O)OCc1ccccc1)C(=O)NC(CCCCNC(=O)CNC(=O)OCc1ccccc1)C(=O)O (configuration not stated) ?
A: n

Q: How was Cc1nnc2sc(-c3ccc([N+](=O)[O-])o3)nn12 classified in this test?
A: n

----------
Test system: TK-10
Assay: NCI tumour cell line growth inhibition, 48 h
Activity calls are given as the source filed them. Cut-off read from the data, not from the text of the source: active = GI50 up to about 1.1 µM and inactive = higher.
Respond only with the outcome that fits, drawn from Y = active, N = inactive

Use the examples below as a reference point.
c1ccc(SC(Sc2ccccc2)=C2CCC2)cc1 : N
CC1CCC/C1=C(/I)C(=O)c1ccccc1 (centres undefined) : N
C/C(=N/O)c1ccc2c(c1)/C(=N/O)c1cc(/C(C)=N/O)ccc1-2 : N
O=C(NCCCCCCNC(=O)NC1OCC(O)C(O)C1O)NC1OCC(O)C(O)C1O (centres undefined) : N
CC(=O)OC1C(C)OC(OC2C[C@](O)(C(C)=O)Cc3c(O)c4c(c(O)c32)C(=O)c2ccccc2C4=O)C(F)C1OC(C)=O (some centres undefined) : N

Q: Please indicate how the test categorized C=C(CN1CC2C[C@](C(=O)OC)(c3cc4ccccc4[nH]3)C1C(OC)C2OC)S(=O)(=O)c1ccccc1 (some centres undefined) .
A: N

Q: Could you kindly confirm the outcome this assay logged for COc1cc2cc(C(=O)N3CC(CCl)c4ccc(N(C)C)cc43)[nH]c2c(OC)c1OC (centres undefined) ?
A: Y

Q: For this compound, state the assay outcome: CC(=O)OCC1=C(C)C(OC(=O)C(OC(C)=O)[C@@H](NC(=O)c2ccccc2)c2ccccc2)CCC1(C)C (some centres undefined)
A: N

Q: Test call, this compound: COC(CNC(=O)CNC(=O)c1ccc(C(F)(F)F)cc1)OC
A: N

----------
Catalogue of GI50 readings, one per entry.
System: U-251
Experiment: NCI tumour cell line growth inhibition, 48 h
Active and inactive are the calls of the source. Cut-off read from the data, not from the text of the source: active = GI50 up to about 1.1 µM and inactive = higher.

A selection of reference data follows.
CC(=O)NNc1nc(C)c(C(=O)NNC(=O)C(=O)Nc2c(Cl)cc([N+](=O)[O-])cc2Cl)s1 : > 100 µM (inactive)
C=C1C(OC(=O)/C=C/c2ccccc2)CC(OC(C)=O)C2(C)C1CC1CC(OC(C)=O)C(C)=C(C(OC(C)=O)C2OC(C)=O)C1(C)C (stereo not given) : > 100 µM (inactive)
CC(NC(=N)N)C(=O)O (stereo not given) : > 100 µM (inactive)
CC(=O)Nc1ccc2cc3[nH]c4cc(NC(C)=O)ccc4c3nc2c1 : 77.4 µM (inactive)
CN(/N=C\c1ccnc2ccccc12)c1ccccc1 : 25.8 µM (inactive)
CN1CC(C(=O)C2C(=O)c3ccccc3C2=O)C(=O)C(=O)C(C(=O)C2C(=O)c3ccccc3C2=O)C1 (stereo not given) : > 100 µM (inactive)
CC(C)O/C=C1\C(=O)C2(SCCS2)[C@H]2CCCC[C@@H]12 : 40.5 µM (inactive)
CCOC(=O)c1s/c(=N\Nc2nc3ccccc3cc2C2OCCO2)n(Cc2ccccc2)c1C : > 100 µM (inactive)

Query CSc1nc(C#N)c(/N=C\N(C)C)n1C yields GI50 of > 100 µM (inactive)

According to the records, this molecule O=CC(O)C(O)C(O)C1CNC(=S)O1 (stereo not given) displays GI50 of > 100 µM (inactive)

----------
System: COLO 205
Assay: NCI tumour cell line growth inhibition, 48 h
Active and inactive are the calls of the source. No stated cut-off is given here; in the data, active = GI50 up to about 1.1 µM and inactive = higher.
Parameter call: string, one of active, inactive

// known answers, use as guide
Cn1c2ccccc2n2c3ncccc3/c(=N/CCCC(=O)O)c(C#N)c12 : inactive
CCN(CC)CCN1CCN=c2c3cc(OC)ccc3n3cnc4ccc1c2c43 : active
CC(=O)OCC1=C(C)C(OC(=O)C(OC(C)=O)[C@@H](NC(=O)c2ccccc2)c2ccccc2)CCC1(C)C (some centres undefined) : inactive
O=C(O)Cc1cccnc1 : inactive
COC1OC(=O)[C@H]2O[N+]([O-])=C(C)[C@@H]12 (some centres undefined) : inactive
C[C@H]1[C@H]2[C@H](C[C@@]3(C)C4=CC[C@H]5C(C)(C)[C@@H](OC6OCC(O)C(O)C6O)CC[C@@]56C[C@@]46CC[C@]23C)O[C@@]2(O)[C@@H]1OC(C)(C)[C@H]2O (some centres undefined) : inactive

In the following, a different molecule is considered.
Q: Recorded call for Cc1cc(O)c(C(c2ccncc2)c2c(O)cc(C)[nH]c2=O)c(=O)[nH]1 ?
A: inactive
